Each item that follows carries a reported pH of the solution.
Property Label: pH of the solution

>>> print(df.to_string())
                                   compound  test_result
0  O=C(CCCCCCC(=O)Nc1ccccc1)N[O-].O=C(CCCCCCC(=O)Nc1ccccc1)N[O-].[Ni+2] [Compound 3, Ni(saha)2]         5.86
1  O=C(CCCCCCC(=O)Nc1ccccc1)N[O-].O=C(CCCCCCC(=O)Nc1ccccc1)N[O-].[Mg+2] [Compound 1, Mg(saha)2]         7.75
2  O=C(CCCCCCC(=O)Nc1ccccc1)N[O-].O=C(CCCCCCC(=O)Nc1ccccc1)N[O-].[Ca+2] [Compound 2, Ca(saha)2]         8.60
